# TARGET OR TEST SYSTEM: T1, USP38, Q8NB14
# T1 chain: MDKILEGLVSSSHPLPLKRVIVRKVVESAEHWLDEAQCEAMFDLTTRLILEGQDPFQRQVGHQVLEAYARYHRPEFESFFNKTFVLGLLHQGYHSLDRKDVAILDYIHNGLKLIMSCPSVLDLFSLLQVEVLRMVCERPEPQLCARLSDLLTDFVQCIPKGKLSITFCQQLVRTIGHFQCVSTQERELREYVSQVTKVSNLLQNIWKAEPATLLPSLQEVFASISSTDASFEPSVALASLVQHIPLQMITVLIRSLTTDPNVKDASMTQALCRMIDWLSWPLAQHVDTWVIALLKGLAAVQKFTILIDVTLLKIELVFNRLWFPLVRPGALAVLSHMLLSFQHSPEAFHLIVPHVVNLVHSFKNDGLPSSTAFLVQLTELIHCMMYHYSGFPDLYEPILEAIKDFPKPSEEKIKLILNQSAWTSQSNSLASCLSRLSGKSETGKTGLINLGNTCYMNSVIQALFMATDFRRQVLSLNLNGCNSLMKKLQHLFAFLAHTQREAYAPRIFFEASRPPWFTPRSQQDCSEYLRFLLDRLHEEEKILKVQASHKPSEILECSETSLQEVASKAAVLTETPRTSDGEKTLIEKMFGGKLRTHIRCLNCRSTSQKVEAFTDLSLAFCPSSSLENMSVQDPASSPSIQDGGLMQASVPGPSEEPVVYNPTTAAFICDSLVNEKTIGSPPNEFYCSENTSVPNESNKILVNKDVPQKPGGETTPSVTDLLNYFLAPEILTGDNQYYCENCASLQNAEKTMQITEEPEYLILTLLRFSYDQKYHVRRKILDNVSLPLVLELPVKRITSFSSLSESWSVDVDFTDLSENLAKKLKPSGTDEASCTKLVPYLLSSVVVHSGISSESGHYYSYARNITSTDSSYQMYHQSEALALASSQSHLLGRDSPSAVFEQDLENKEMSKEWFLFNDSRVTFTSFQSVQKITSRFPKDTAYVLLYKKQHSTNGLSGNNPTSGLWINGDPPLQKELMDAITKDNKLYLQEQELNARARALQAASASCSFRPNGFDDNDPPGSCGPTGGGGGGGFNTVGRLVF
# TEST PROTOCOL: median log2 fold change of GCK-ALFA target abundance (FLAG IP / Myc IP barcode read proportion) (log2 ratio); each designed protein is fused to an ALFA-tag nanobody in HEK293 cells to bring the named protein to FLAG-tagged glucokinase (GCK); Myc marks an untargeted standard; higher = target protein stabilised (more abundant)
# MEASUREMENT PARAMETERS: target protein: 3xFLAG-MCP-GCK-ALFA reporter; HEK293 landing pad (RPLP)
Listing of entries alongside the reported median log2 fold change.
ASSAY ENDPOINT: median log2 fold change

BINDER	ASSAY ENDPOINT	REPORTED VALUE
usp_38_diff_out_1_153_36 (protein) SELDELKARLDAITAEANALKAEINAAIEAGTMTREQVDAAWDRLGALAKELAEIRAKAAEKPELYPQLKPAIDAATAALNAAIDALNEAARLVFLREAE	median log2 fold change	0.22
usp_38_diff_out_5_164_604 (protein) AVEEALAKMKAITEELKKKFDELLAEAKKNPEKLDEYKKEVTEALNKAIDEMNEVTTAALEAAPEQADTILAAYDENVTEMLTHYQAVMDELKALEKEAA	median log2 fold change	-0.333
usp_38_diff_out_3_124_516 (protein) MKAEKLYEELKKLLKEIEKLIKEAKKELNKDLEELKKLLKELDKKLDELSKVFMELHELAAEDPRYRPLLKEARKESNKVITEATKVKLEALERLAEEEE	median log2 fold change	0.0275
usp_38_diff_out_14_54_127 (protein) DEEIKRLLEEARKYLEEAKKALAELKELVAAGAAPEEVFAAYDKAADAIAKAGEAIRRLMRLSTDPEVRKEAREIQEEADKLVDEMTEAVTAAQEKAAEA	median log2 fold change	0.232
